Structures can show the parent of a compound that is named as a salt.
measurement-label: melting point (°C)

- CCCCCCCCCCCCCCCCCCNC(=O)[C@@H]1CSC(c2ccc(C#N)cc2)N1 (mixture of isomers): 90

[I] CCCCCCCCCCCCCCCCCCNC(=O)C1CSC(c2ccoc2)N1 (stereo not drawn) (as salt: hydrochloride)
[II] CCCCCCCCCCCCCCCCCCNC(=O)[C@@H]1CSC(c2ccc(NC(C)=O)cc2)N1.Cl (mixture of isomers)
Exercise: Larger number for melting point: I , or II ? Mark your selection by writing its label.
Key: II
(II: 170 °C, I: 99 °C)

###

Test system: PC-3 human prostate cancer cells
Assay: SRB cytotoxicity assay, PC-3
Format: cell-based
Settings: 96 h exposure, prostate cancer cell line
pIC50: −log10 of the molar value.
measurement-label: pIC50

- NCCCCNCCCNC(=O)CN1C(=O)CSC1c1ccccc1 (stereo not drawn): < 4.00

Exercise: Could you tell me which pIC50 is on file for COc1cc(C2NC(C(=O)NCCCNCCCCNCCCN)CS2)cc(OC)c1OC (mixture of isomers) ?
Key: 5.23

Exercise: Could you tell me which pIC50 is on file for NCCCCNC(=O)CN1C(=O)CSC1c1ccccc1 (stereo not drawn) ?
Key: < 4.00

Exercise: Could you tell me which pIC50 is on file for COc1cc(C2NC(C(=O)NCCCCN)CS2)cc(OC)c1OC (mixture of isomers) ?
Key: < 4.00

Exercise: Could you tell me which pIC50 is on file for NCCCCNC(=O)C(N)CO (stereo not drawn) ?
Key: < 4.00

Exercise: Could you tell me which pIC50 is on file for COc1cc(C2NC(C(=O)NCCCNCCCCN)CS2)cc(OC)c1OC (mixture of isomers) ?
Key: < 4.00

Exercise: Could you tell me which pIC50 is on file for NCCCNCCCCNCCCNC(=O)CN1C(=O)CSC1c1ccccc1 (stereo not drawn) ?
Key: 5.15

Exercise: Could you tell me which pIC50 is on file for NCCCCNCCCNC(=O)C(N)CO (stereo not drawn) ?
Key: < 4.00

Exercise: Could you tell me which pIC50 is on file for NCCCNCCCCNCCCNC(=O)C(N)CO (stereo not drawn) ?
Key: 5.32

###

Test system: LNCaP human prostate cancer cells
Test: SRB cytotoxicity assay, LNCaP
Type: cell-based
Conditions: 96 h exposure, prostate cancer cell line
Description: For in vitro cytotoxicity screening, 1000 to 5000 cells were plated into each well of 96-well plates depending on growth rate, and exposed to different concentrations of a test compound for 96 h in three to five replicates. […] Briefly, the cells were fixed with 10% of trichloroacetic acid, stained with 0.4% SRB, and the absorbances at 540 nm was measured using a plate reader (DYNEX Technologies, Chantilly, Va.). […]
measurement-label: IC50 (µM)
Unit µM implied. Number only.

- NCCCNCCCCNCCCNC(=O)CN1C(=O)CSC1c1ccccc1 (centres unmarked): 12.2

Exercise: Could you tell me which IC50 is on file for COc1cc(C2NC(C(=O)NCCCNCCCCNCCCN)CS2)cc(OC)c1OC (mixture of isomers) ?
Key: 10.9

###

Recorded pIC50 values for a group of molecules are listed next.
Test system: human breast cancer cell line (MCF-7)
Assay: SRB cytotoxicity assay, MCF-7
Format: cell-based
Conditions: Homo sapiens, MCF7, SRB assay
Quick note: pIC50 means taking -log10 of the concentration in moles per liter.

* CCCCCCCCCCCCCCCCCCNC(=O)[C@@H]1CSC(c2c[nH]c3ccccc23)N1 (mixture of isomers) [Compound 10] | 4.97

From here, focus on the item given below.
Exercise: Could you tell me which pIC50 is on file for CCCCCCCCCCCCCCCCCCNC(=O)[C@@H]1CSC(c2ccc([N+](=O)[O-])cc2)N1 (mixture of isomers) [Compound 21] ?
Key: 4.82

###

Tested on: SKOv-3 human ovarian cancer cell line
Test: SRB cytotoxicity assay, SKOv-3
Type: cell-based
Conditions: SK-OV-3
measurement-label: IC50 (µM)
Unit µM implied. Number only.

Sample answers from the record:
* CCCCCCCCCCCCCCCCCCNC(=O)[C@@H]1CSC(c2ccc(OC)c(OC)c2)N1.Cl (mixture of isomers) [Compound 16, Hydrochloride] | 3.6
* CCCCCCCCCCCCCCCCCCNC(=O)C1CSC(c2ccoc2)N1 (stereo not drawn) | 5.4

From here, focus on the item given below.
Exercise: Could you tell me which IC50 is on file for CCCCCCCCCCCCCCCCCCNC(=O)[C@@H]1CSC(c2cccc(O)c2)N1 (mixture of isomers) ?
Key: 11

###

measurement-label: melting point (°C)

[a] CCCCCCCCCCCCCCCCCCNC(=O)[C@@H]1CSC(c2ccc(OC)cc2)N1.Cl (mixture of isomers) [Compound 15]
[b] CCCCCCCCCCCCCCCCCCNC(=O)[C@@H]1CSC(c2cccc(O)c2)N1 (mixture of isomers) [Compound 14]
Exercise: Larger number for melting point: a , or b ? Mark your selection by writing its label.
Key: a
(a: 95 °C, b: 50 °C)

###

Recorded IC50 values for a group of compounds are listed next.
Tested on: OVCAR-3 human ovarian cancer cell line
Experiment: SRB cytotoxicity assay, OVCAR-3
Assay type: cell-based
Unit µM implied. Number only.

* CCCCCCCCCCCCCCCCCCNC(=O)C1CSC(c2ccoc2)N1 (stereo not drawn) [Compound 12] | 2.3
* CCCCCCCCCCCCCCCCCCNC(=O)[C@@H]1CSC(c2cccc(O)c2)N1 (mixture of isomers) [Compound 14] | 8.1

From here, focus on the item given below.
Exercise: Could you tell me which IC50 is on file for CCCCCCCCCCCCCCCCCCNC(=O)[C@@H]1CSC(c2ccc(OC)c(OC)c2)N1.Cl (mixture of isomers) [Compound 16, Hydrochloride] ?
Key: 1.2

###

System: TSU-Pr1 human prostate cancer cells
Test: SRB cytotoxicity assay, TSU-Pr1
Type: cell-based
Conditions: 96 h exposure, prostate cancer cell line
Procedure: Dr. Mitchell Steiner at University of Tennessee Health Science Center, kindly provided PPC-1 and TSU-Pr1 cells. For in vitro cytotoxicity screening, 1000 to 5000 cells were plated into each well of 96-well plates depending on growth rate, and exposed to different concentrations of a test compound for 96 h in three to five replicates. All the compounds were dissolved in dimethyl sulfoxide at 5 to 20 mM, and diluted to desired concentrations in complete culture medium. […]
pIC50: −log10 of the molar value.
Recorded pIC50 values for a group of compounds are listed next.

- NCCCCNCCCNC(=O)C(N)CO (stereo not drawn): < 4.00
- NCCCNCCCCNCCCNC(=O)CN1C(=O)CSC1c1ccccc1 (stereo not drawn): 5.49
- NCCCCNCCCNC(=O)CN1C(=O)CSC1c1ccccc1 (stereo not drawn): < 4.00
- NCCCNCCCCNCCCNC(=O)C(N)CO (stereo not drawn): 5.60

Exercise: Could you tell me which pIC50 is on file for COc1cc(C2NC(C(=O)NCCCNCCCCNCCCN)CS2)cc(OC)c1OC (mixture of isomers) ?
Key: 5.52

Exercise: Could you tell me which pIC50 is on file for COc1cc(C2NC(C(=O)NCCCCN)CS2)cc(OC)c1OC (mixture of isomers) ?
Key: < 4.00

Exercise: Could you tell me which pIC50 is on file for NCCCCNC(=O)C(N)CO (stereo not drawn) ?
Key: < 4.00

Exercise: Could you tell me which pIC50 is on file for NCCCCNC(=O)CN1C(=O)CSC1c1ccccc1 (stereo not drawn) ?
Key: < 4.00

Exercise: Could you tell me which pIC50 is on file for COc1cc(C2NC(C(=O)NCCCNCCCCN)CS2)cc(OC)c1OC (mixture of isomers) ?
Key: < 4.00

###

Recorded IC50 values for a group of compounds are listed next.
Test system: LNCaP human prostate cancer cells
Experiment: SRB cytotoxicity assay, LNCaP
Assay type: cell-based
Settings: 96 h exposure, prostate cancer cell line

- NCCCNCCCCNCCCNC(=O)C(N)CO (stereo not shown) [Compound 216]: 8 µM
- COc1cc(C2NC(C(=O)NCCCNCCCCN)CS2)cc(OC)c1OC (mixture of isomers) [Compound 223]: > 100 µM
- NCCCCNCCCNC(=O)CN1C(=O)CSC1c1ccccc1 (stereo not shown) [Compound 219]: > 100 µM

From here, focus on the item given below.
Exercise: Could you tell me which IC50 is on file for NCCCCNC(=O)CN1C(=O)CSC1c1ccccc1 (stereo not shown) [Compound 218] ?
Key: > 100 µM

###

System: LNCaP human prostate cancer cells
Experiment: SRB cytotoxicity assay, LNCaP
Format: cell-based
Conditions: 96 h exposure, prostate cancer cell line
pIC50: −log10 of the molar value.
measurement-label: pIC50

Sample answers from the record:
* NCCCCNCCCNC(=O)C(N)CO (stereo not drawn) | < 4.00
* COc1cc(C2NC(C(=O)NCCCCN)CS2)cc(OC)c1OC (mixture of isomers) | < 4.00

From here, focus on the item given below.
Exercise: Could you tell me which pIC50 is on file for NCCCCNC(=O)C(N)CO (stereo not drawn) ?
Key: < 4.00
